Assignment: determine reported pKi for the given binders.
- assay_system: T1, plasmin (human, UniProt P00747)
- T1 chain: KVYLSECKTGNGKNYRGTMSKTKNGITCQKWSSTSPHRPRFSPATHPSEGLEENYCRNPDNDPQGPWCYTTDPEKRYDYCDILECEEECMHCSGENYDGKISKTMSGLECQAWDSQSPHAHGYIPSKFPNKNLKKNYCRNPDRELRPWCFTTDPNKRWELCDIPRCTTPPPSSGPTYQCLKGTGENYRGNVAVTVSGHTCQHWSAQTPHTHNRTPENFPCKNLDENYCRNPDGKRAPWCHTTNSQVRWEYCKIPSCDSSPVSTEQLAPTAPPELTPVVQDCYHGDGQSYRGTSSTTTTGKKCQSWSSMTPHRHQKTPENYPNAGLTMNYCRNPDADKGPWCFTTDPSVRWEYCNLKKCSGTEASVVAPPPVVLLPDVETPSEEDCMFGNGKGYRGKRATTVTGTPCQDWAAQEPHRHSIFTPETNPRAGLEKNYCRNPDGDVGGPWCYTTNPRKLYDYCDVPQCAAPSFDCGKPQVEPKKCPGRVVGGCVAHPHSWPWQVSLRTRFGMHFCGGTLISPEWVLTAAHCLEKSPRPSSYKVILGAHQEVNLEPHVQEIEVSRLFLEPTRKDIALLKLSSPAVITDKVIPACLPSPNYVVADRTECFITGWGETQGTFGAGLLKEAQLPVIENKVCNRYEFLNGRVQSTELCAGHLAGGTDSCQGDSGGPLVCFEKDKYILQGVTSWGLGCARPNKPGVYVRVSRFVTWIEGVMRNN
Scale: negative log10 of molar concentration, which is what pKi denotes.

# return recorded pKi for entry KD1 wild-type (protein) DAAQEPTGNNAEICLLPLDYGPCRALLLRYYYDRYTQSCRQFLYGGCEGNANNFYTWEACDDACWRIEKVPKV
8.01

Tell me measured pKi for KD1 R24K/L26R (protein) DAAQEPTGNNAEICLLPLDYGPCKARLLRYYYDRYTQSCRQFLYGGCEGNANNFYTWEACDDACWRIEKVPKV please.
8.97

Give the reported value of pKi for this record: KD1 R24K (protein) DAAQEPTGNNAEICLLPLDYGPCKALLLRYYYDRYTQSCRQFLYGGCEGNANNFYTWEACDDACWRIEKVPKV
8.88
